# assay: Displacement of [125I]IMPY from amyloid beta (1 to 42) aggregate after 2 hrs by gamma counting
Measured pKi values are reported for all entries that follow.
Remember the convention: pKi equals -log10 of concentration in molar.

Below: 2 molecules and their reported pKi.
| line.notation | pKi |
| --- | --- |
| CNc1cccc(/C=C/C(=O)/C=C/c2ccc(N(C)C)cc2)c1 | 8.09 |
| CN(C)c1ccc(/C=C/C(=O)/C=C/c2c(F)cccc2Cl)cc1 | 8.04 |

Entry under review: CN(C)c1ccc(/C=C/C(=O)/C=C/c2ccc(N)cc2)cc1 . Reported pKi?
8.43

How about CN(C)c1ccc(/C=C/C(=O)/C=C/c2ccc(OCc3ccccc3)cc2)cc1 ?
8.70

How about CN(C)c1ccc(/C=C/C(=O)/C=C/c2ccc([N+](=O)[O-])cc2)cc1 ?
8.28

---

# assay: Partition coefficient, log D of the compound
# Type: physicochemical
# conditions.used: octanol/water
measure: logD
Lab note: record the figure alone, no unit after it.

| line.notation | logD |
| --- | --- |
| Nc1ccc(/C=C/C(=O)/C=C/c2ccc([125I])cc2)cc1 | 3.26 |
| CNc1ccc(/C=C/C(=O)/C=C/c2ccc(OCCOCCOCC[18F])cc2)cc1 | 3.08 |
| CN(C)c1ccc(/C=C/C(=O)/C=C/c2ccc([125I])cc2)cc1 | 3.66 |
| CN(C)c1ccc(/C=C/C(=O)/C=C/c2ccc(OCCOCCOCC[18F])cc2)cc1 | 2.97 |

Could you now consider this next molecule?
Entry under review: CNc1ccc(/C=C/C(=O)/C=C/c2ccc([125I])cc2)cc1 . Reported logD?
3.55

---

Measured Drug uptake values are reported for all entries that follow.
# Tested on: Stomach
# assay: Biodistribution in ddY mouse stomach at 10 uCi/100 uL, iv after 30 mins by gamma counting
# Format: ADME, organism-based
# conditions.used: in vivo, 0.5 h
Answer format: numeric, % ID/organ implied, no suffix.

| line.notation | Drug uptake (% ID/organ) |
| --- | --- |
| CN(C)c1ccc(/C=C/C(=O)/C=C/c2ccc(OCCOCCOCC[18F])cc2)cc1 | 6 |

Could you now consider this next molecule?
Entry under review: CNc1ccc(/C=C/C(=O)/C=C/c2ccc(OCCOCCOCC[18F])cc2)cc1 . Reported Drug uptake?
1.93

---

# Tested on: Stomach
# assay: Biodistribution in ddY mouse stomach at 10 uCi/100 uL, iv after 60 mins by gamma counting
# Assay type: ADME, organism-based
# conditions.used: in vivo, 1 h
measure: Drug uptake (% ID/organ)
Answer format: numeric, % ID/organ implied, no suffix.

| line.notation | Drug uptake, % ID/organ |
| --- | --- |
| CNc1ccc(/C=C/C(=O)/C=C/c2ccc(OCCOCCOCC[18F])cc2)cc1 | 1.28 |

Could you now consider this next molecule?
What Drug uptake appears in the records for this molecule with Stomach? CN(C)c1ccc(/C=C/C(=O)/C=C/c2ccc(OCCOCCOCC[18F])cc2)cc1
3.98

---

# Tested on: Stomach
# assay: Biodistribution in ddY mouse stomach at 1 uCi/100 uL, iv after 120 mins by gamma counting
# Format: ADME, organism-based
# conditions.used: in vivo, 2 h
measure: Drug uptake (% ID/organ)
Answer format: numeric, % ID/organ implied, no suffix.

Below: 2 molecules and their reported Drug uptake.
| line.notation | Drug uptake [% ID/organ] |
| --- | --- |
| Nc1ccc(/C=C/C(=O)/C=C/c2ccc([125I])cc2)cc1 | 3.07 |
| CNc1ccc(/C=C/C(=O)/C=C/c2ccc([125I])cc2)cc1 | 4.49 |

Entry under review: CN(C)c1ccc(/C=C/C(=O)/C=C/c2ccc([125I])cc2)cc1 . Reported Drug uptake?
0.77

These entries and their values trace back to ChEMBL document CHEMBL1765020.
